Reference source for all entries: ChEMBL document CHEMBL3785009

system: Norovirus; assay: Antiviral activity against Norovirus infected in human HG23 cells assessed as reduction in RNA levels after 48 hrs by RT-PCR; type: functional, cell-based; conditions: HG23, 48 h
Strictly below 40 µM in EC90: Condition met. Otherwise: Condition not met.

>>> print(df.to_string())
                               given_smiles     classification
0  CC(C)C[C@@H]1NC(=O)[C@@H](NC(=O)OC(C)(C)C)CCC2=NN=C(CCCNC(=O)CC[C@@H](C=O)NC1=O)O2      Condition met
1  CC(C)C[C@@H]1NC(=O)[C@@H](NC(=O)OC(C)(C)C)CCC2=NN=C(CNC(=O)CC[C@@H](C=O)NC1=O)O2  Condition not met
2  CC(C)C[C@@H]1NC(=O)[C@@H](NC(=O)OC(C)(C)C)CCC2=NN=C(CCNC(=O)CC[C@@H](C=O)NC1=O)O2      Condition met
3  CC(C)(C)OC(=O)N[C@H]1CCC2=NN=C(CCCNC(=O)CC[C@@H](C=O)NC(=O)[C@H](CC3CCCCC3)NC1=O)O2  Condition not met
4  CC(C)(C)OC(=O)N[C@H]1CCC2=NN=C(CCCCNC(=O)CC[C@@H](C=O)NC(=O)[C@H](CC3CCCCC3)NC1=O)O2      Condition met
5  CC(C)C[C@@H]1NC(=O)[C@@H](NC(=O)OC(C)(C)C)CC2=NN=C(CNC(=O)CC[C@@H](C=O)NC1=O)O2  Condition not met
6  CC(C)(C)OC(=O)N[C@H]1CCC2=NN=C(CCNC(=O)CC[C@@H](C=O)NC(=O)[C@H](CC3CCCCC3)NC1=O)O2      Condition met
7  CC(C)(C)OC(=O)N[C@H]1CCC2=NN=C(CCCCCNC(=O)CC[C@@H](C=O)NC(=O)[C@H](CC3CCCCC3)NC1=O)O2  Condition not met
